assay system: Human CD33 (human, UniProt P20138 18-259)
Sequence (P20138 18-259 limits assumed): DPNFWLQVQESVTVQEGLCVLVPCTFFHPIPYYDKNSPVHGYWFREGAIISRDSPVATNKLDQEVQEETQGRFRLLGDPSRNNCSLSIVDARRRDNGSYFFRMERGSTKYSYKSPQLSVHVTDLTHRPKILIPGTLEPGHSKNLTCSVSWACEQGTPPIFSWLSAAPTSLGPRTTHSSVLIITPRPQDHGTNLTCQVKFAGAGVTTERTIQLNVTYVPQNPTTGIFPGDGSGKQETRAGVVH
procedure summary: BLI (Octet) as in Example 1, His-tagged VHH, human CD33
metric: kon (M⁻¹ s⁻¹)

{"columns": ["binder", "kon / M⁻¹ s⁻¹"],
 "data": [
  ["33-4 (VHH, not shown: C-terminal His-tag) VHH: QVQLVESGGGSVQPGGSLRLSCEASGSIFSIAHMGWYRQAPGKQRELVAVISSGGRTNYVDSVKGRFTISRDNAKNTVYLQMNSLKAEDTAVYFCNVAVVGGPRFDYWGQGTQVTVSS", 900000],
  ["33-13 (VHH, not shown: C-terminal His-tag) VHH: QVQLVESGGGLVQAGGSLRLSCAASGSISSINSMNWYRQAPGKQREKVAGINSSGDTNYVDSVKGRFTISRDNAERTTYLQMNNLKPEDTGLYYCNADPRPWPNDVAFGSWGQGTRVTVSS", "1e+06"],
  ["33-2 (VHH, not shown: C-terminal His-tag) VHH: QVQLVESGGGLVQAGGSLRLSCTASANILRTAPMAWYRQAPGKQREFVALITADGTTDYQESVKGRFTTSRDNAKNTVYLQMNSLQSEDTARYFCKVYSYWGQGTQVTVSS", 800000],
  ["33-1 (VHH, not shown: C-terminal His-tag) VHH: QVQLVESGGGLVQTGGSLRLSCAASGGTFTNYAMGWFREAPGKEREFVAGINNNGDTLYNTNSVKGRFTISRDNAKNTVYLHMNSLKLEDTAVYYCAANLKGASWYSANYDYWGQGTQVTVSS", 800000],
  ["33-8 (VHH, not shown: C-terminal His-tag) VHH: EVQLMESGGGLVQAGGSLRLSCAASGRTVSTYVMGWFRQAPGKEREFVAEINRIGDTLYNRTSVKGRFTISRDNAKNTVYLQMNSLEPEDTAVYSCAARVIGTSTYNYWGQGTQVTVSS", "1.1e+06"],
  ["33-14 (VHH, not shown: C-terminal His-tag) VHH: QVQLVESGGGLVQAGDSLKLSCAASGRTSLILAMAWWRQAPGKEREFAGRIWWNNDMTRYSDSVKGRFTISKDNTKNMVYLRMDNLGPEDTAVYYCEADLIGGSRGWGQGTQVTVSS", 800000]
]}
